# tested.on: T1, APBA1_2, Q02410
# T1 sequence (Q02410 742-832, limits assumed, looked up): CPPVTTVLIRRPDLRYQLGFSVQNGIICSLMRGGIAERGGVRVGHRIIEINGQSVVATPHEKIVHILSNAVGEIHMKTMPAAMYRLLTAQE
# assay.procedure: holdup assay
# Parameters: key: below the threshold = too weak to quantify, mostly under pKd 3.1 to 4
# conditions.used: plain residues with an end cap or a label only (N-terminal biotin on a linker: ado-ado)
Rule: pKd under 4 gives -1, otherwise 1.

Sample answers from the record:
1. APIAGFSSFV [SDK2, Q58EX2] = 1
2. DTKNYKQTSV [CRIPT, Q9P021] = -1
3. LESTTVGTSV [KARS1, Q15046] = 1

Attention now turns to another entry.
*Q* Identify whether the reported pKd of the following binder is 4 or greater: RDPPAEWTRV [PTPN18, Q99952]
*A* 1
